Kindly state pEC50 for each of the entries shown.
# Test system: HIV-IIIb IN T174I BT
# PROTOCOL DETAILS: Antiviral assay in MT4 cells, HIV-IIIb IN T174I BT virus (from viral breakthrough)
# Format: cell-based, HIV-1
# CONDITION SUMMARY: Human immunodeficiency virus 1, IIIB, MT4, 120 h, read-out: T174I BT EC50, MT4 cells, HIV-IIIb IN T174I BT (viral breakthrough), 5 days, CellTiter-Glo
Scale for pEC50: -log10 of concentration given in mol/L; no unit attached.

(Q) Sample COCCN1CCCC(c2nn(C)c3ccc(-c4nc5cc(C)c([C@H](OC(C)(C)C)C(=O)O)c(-c6ccc(Cl)cc6)c5s4)cc23)C1 (stereo partly drawn) [Compound 77] — what was its pEC50?
(A) 5.74

(Q) Sample Cc1cc2nc(-c3ccc4c(c3)c(C3CCN(CC5CCO5)CC3)nn4C)sc2c(-c2ccc(Cl)cc2)c1[C@H](OC(C)(C)C)C(=O)O (stereo partly drawn) [Compound 6] — what was its pEC50?
(A) 6.55

(Q) Sample Cc1cc2nc(-c3ccc4c(c3)c(N3CC(N5CCOCC5)C3)nn4C)sc2c(-c2ccc(Cl)cc2)c1[C@H](OC(C)(C)C)C(=O)O [Compound 88] — what was its pEC50?
(A) 5.91

(Q) Sample CC(=O)N1CC(N2CCC(c3nn(C(F)F)c4ccc(-c5nc6cc(C)c([C@H](OC(C)(C)C)C(=O)O)c(-c7ccc(Cl)cc7)c6s5)nc34)CC2)C1 [Compound 183] — what was its pEC50?
(A) 7.54

(Q) Sample COC(=O)N1CC[C@@H](N2CCC(c3nn(C)c4ccc(-c5nc6cc(C)c([C@H](OC(C)(C)C)C(=O)O)c(-c7ccc(Cl)cc7)c6s5)cc34)CC2)C1 [Compound 165] — what was its pEC50?
(A) 6.93

(Q) Sample Cc1cc2nc(-c3ccc4c(c3)c(C3CCN(C5CN(C(C)C(F)(F)F)C5)CC3)nn4C)sc2c(-c2ccc(Cl)cc2)c1[C@H](OC(C)(C)C)C(=O)O (stereo partly drawn) [Compound 8] — what was its pEC50?
(A) 5.96
